# Tested on: VEGFR2;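 note: KINOMEscan kinase panel screen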
# Construct: gene KDR
# condition-parameters: concentration: 1 μM, replicates: in singlicate; n = 1
Examples of compounds with documented %Inh follow.

structure-smiles | %Inh, %
O=S(=O)(c1ccc(-c2ccnc3[nH]ccc23)cc1)N1CCCC1 | 15
CC(C)(C)c1ccc(C(=O)Nc2cn3cc(Cl)ccc3n2)cc1 | 12
COc1cc2ncnc(Nc3ccc4nc(-c5ccccc5)[nH]c4c3)c2cc1OC.Cl | 27
O=C1NC(=O)C(N2CCc3ccccc32)=C1c1ccccc1Cl | 2
CCn1c(-c2ccccn2)nc2cnccc21 | 0
Nc1ncnc2[nH]c(-c3ccccc3)nc12 | 0
CCn1c(-c2cccnc2O)nc2cnccc21 | 0
